Every entry's value here was drawn from patent US4462993A.

The entries below come with measured LD50 values attached.
assay: toxicity measurements at CFLP-mice (LD50); details: mouse, in vivo, iv, female CFLP-mice; read-out: LD50 i.v.

Examples from the recorded data:
{"Compound": "C[n+]1c2cc(N[C@@H]3O[C@H](CO)[C@@H](O)[C@H](O)[C@H]3O)ccc2cc2ccc(N[C@@H]3O[C@H](CO)[C@@H](O)[C@H](O)[C@H]3O)cc21.[Cl-]", "Recorded result": "37 mg/kg"}
{"Compound": "C[n+]1c2cc(N)ccc2cc2ccc(N)cc21", "Recorded result": "14 mg/kg"}
{"Compound": "OC[C@H]1O[C@@H](Nc2ccc3cc4ccc(N[C@@H]5O[C@H](CO)[C@@H](O)[C@H](O)[C@H]5O)cc4nc3c2)[C@H](O)[C@@H](O)[C@@H]1O [3,6-diamino-acridine-diglucoside]", "Recorded result": "87 mg/kg"}

Now for the compound whose LD50 we want.
Let me know recorded LD50 for Nc1ccc2cc3ccc(N)cc3nc2c1 , thanks. 65 mg/kg

---

assay: toxicity measurements at CFLP-mice (LD50); conditions: mouse, in vivo, ip, female CFLP-mice; read-out: LD50 i.p.
Experimental readout: LD50 (mg/kg)
Field format: number, assumed mg/kg, no unit text.

Examples from the recorded data:
{"Compound": "Nc1ccc2cc3ccc(N)cc3nc2c1 [3,6-diamino-acridine, 3,6-diaminoacridine]", "LD50 [mg/kg]": 84}
{"Compound": "OC[C@H]1O[C@@H](Nc2ccc3cc4ccc(N[C@@H]5O[C@H](CO)[C@@H](O)[C@H](O)[C@H]5O)cc4nc3c2)[C@H](O)[C@@H](O)[C@@H]1O [3,6-diamino-acridine-diglucoside]", "LD50 [mg/kg]": 280}
{"Compound": "C[n+]1c2cc(N)ccc2cc2ccc(N)cc21 [3,6-diamino-10-methyl-acridine]", "LD50 [mg/kg]": 60}

Let me know recorded LD50 for C[n+]1c2cc(N[C@@H]3O[C@H](CO)[C@@H](O)[C@H](O)[C@H]3O)ccc2cc2ccc(N[C@@H]3O[C@H](CO)[C@@H](O)[C@H](O)[C@H]3O)cc21.[Cl-] , thanks. 210
